Entry source: ChEMBL document CHEMBL1139579

Target: Melanocortin receptor 4 (Homo sapiens)
Assay: Stimulation of cAMP levels in the HEK293 cell line at 10 uM
Format: functional, cell-based
readout_type: Stimulation (%)
Give bare numbers, in %.

Batch request: Stimulation per item, same order as input.
1. NCCC(=O)N[C@H](Cc1ccc(Cl)cc1Cl)C(=O)N1CCN(C2(CNCc3ccccn3)CCCCC2)CC1
2. COc1cccc(CC(=O)NCC2(N3CCN(C(=O)[C@@H](Cc4ccc(Cl)cc4Cl)NC(=O)CCN)CC3)CCCCC2)c1
3. NCCC(=O)N[C@H](Cc1ccc(Cl)cc1Cl)C(=O)N1CCN(C2(CNC(=O)Cc3ccc(Cl)cc3)CCCCC2)CC1
4. NCCC(=O)N[C@H](Cc1ccc(Cl)cc1Cl)C(=O)N1CCN(C2(CNCc3ccc(C(F)(F)F)cc3)CCCCC2)CC1

Result:
[3, 1.8, 1.4, 4.1]

Batch request: Stimulation per item, same order as input.
1. NCCC(=O)N[C@H](Cc1ccc(Cl)cc1Cl)C(=O)N1CCN(C2(CNCc3nccs3)CCCCC2)CC1
2. COc1ccccc1C(=O)NCC1(N2CCN(C(=O)[C@@H](Cc3ccc(Cl)cc3Cl)NC(=O)CCN)CC2)CCCCC1

Result:
4.9
6.5

###

So I've got a bunch of compounds here, and I need their pKi values.
Molecular target: Melanocortin receptor 5 (Homo sapiens, UniProt P33032)
Sequence (P33032 whole entry): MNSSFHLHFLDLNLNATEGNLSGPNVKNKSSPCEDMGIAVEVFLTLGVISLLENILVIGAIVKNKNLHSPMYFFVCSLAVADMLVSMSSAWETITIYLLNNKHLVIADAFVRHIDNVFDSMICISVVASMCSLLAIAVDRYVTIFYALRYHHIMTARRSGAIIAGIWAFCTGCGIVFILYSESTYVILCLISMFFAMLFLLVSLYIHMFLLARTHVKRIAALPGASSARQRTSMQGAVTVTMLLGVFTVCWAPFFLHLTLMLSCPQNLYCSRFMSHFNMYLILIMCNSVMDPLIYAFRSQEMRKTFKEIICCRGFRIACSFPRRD
Answers are plain numbers, as −log10 of the molar value.

test_smiles | pKi
NCCC(=O)N[C@H](Cc1ccc(Cl)cc1Cl)C(=O)N1CCN(C2(CNC(=O)Cc3cccs3)CCCCC2)CC1 | 6.32
NCCC(=O)N[C@H](Cc1ccc(Cl)cc1Cl)C(=O)N1CCN(C2(CNCc3cccs3)CCCCC2)CC1 | 5.72
COc1cccc(CC(=O)NCC2(N3CCN(C(=O)[C@@H](Cc4ccc(Cl)cc4Cl)NC(=O)CCN)CC3)CCCCC2)c1 | 6.33

Q: Return value of pKi for input `COc1ccc(CC(=O)NCC2(N3CCN(C(=O)[C@@H](Cc4ccc(Cl)cc4Cl)NC(=O)CCN)CC3)CCCCC2)cc1` , no commentary.
Result: 6.27

###

Target: UniProt P32245
Test: Stimulation of cAMP levels in the HEK293 cell line at 10 uM
Type: functional, cell-based
readout_type: Stimulation (%)
Answers are plain numbers, in %.

test_smiles | quantitative_readout
NCCC(=O)N[C@H](Cc1ccc(Cl)cc1Cl)C(=O)N1CCN(C2(CNC(=O)c3ccccc3)CCCCC2)CC1 | 5.1
NCCC(=O)N[C@H](Cc1ccc(Cl)cc1Cl)C(=O)N1CCN(C2(CNC(=O)c3ccc(F)cc3)CCCCC2)CC1 | 7.9
NCCC(=O)N[C@H](Cc1ccc(Cl)cc1Cl)C(=O)N1CCN(C2(CNC(=O)c3ccc([N+](=O)[O-])cc3)CCCCC2)CC1 | 6.7
NCCC(=O)N[C@H](Cc1ccc(Cl)cc1Cl)C(=O)N1CCN(C2(CNC(=O)c3ccco3)CCCCC2)CC1 | 4.5
N#Cc1ccc(CNCC2(N3CCN(C(=O)[C@@H](Cc4ccc(Cl)cc4Cl)NC(=O)CCN)CC3)CCCCC2)cc1 | 5

Batch request: Stimulation per item, same order as input.
1. NCCC(=O)N[C@H](Cc1ccc(Cl)cc1Cl)C(=O)N1CCN(C2(CNC(=O)c3ccc(Cl)cc3)CCCCC2)CC1
2. NCCC(=O)N[C@H](Cc1ccc(Cl)cc1Cl)C(=O)N1CCN(C2(CNC(=O)Nc3ccc(Cl)cc3)CCCCC2)CC1
3. NCCC(=O)N[C@H](Cc1ccc(Cl)cc1Cl)C(=O)N1CCN(C2(CNC(=O)Nc3ccc([N+](=O)[O-])cc3)CCCCC2)CC1
4. CN(C)c1ccc(NC(=O)NCC2(N3CCN(C(=O)[C@@H](Cc4ccc(Cl)cc4Cl)NC(=O)CCN)CC3)CCCCC2)cc1
5. NCCC(=O)N[C@H](Cc1ccc(Cl)cc1Cl)C(=O)N1CCN(C2(CNC(=O)c3cccs3)CCCCC2)CC1
6. Cc1ccc(C(=O)NCC2(N3CCN(C(=O)[C@@H](Cc4ccc(Cl)cc4Cl)NC(=O)CCN)CC3)CCCCC2)cc1
7. NCCC(=O)N[C@H](Cc1ccc(Cl)cc1Cl)C(=O)N1CCN(C2(CNCc3ccc(OC(F)(F)F)cc3)CCCCC2)CC1

Result:
10
5.9
11
2.7
5.1
7.8
2.4

Batch request: Stimulation per item, same order as input.
1. NCCC(=O)N[C@H](Cc1ccc(Cl)cc1Cl)C(=O)N1CCN(C2(CNCCCc3ccccc3)CCCCC2)CC1
2. NCCC(=O)N[C@H](Cc1ccc(Cl)cc1Cl)C(=O)N1CCN(C2(CNCCc3ccccc3)CCCCC2)CC1
3. NCCC(=O)N[C@H](Cc1ccc(Cl)cc1Cl)C(=O)N1CCN(C2(CNC(=O)C(F)(F)F)CCCCC2)CC1
4. COc1ccc(C(=O)NCC2(N3CCN(C(=O)[C@@H](Cc4ccc(Cl)cc4Cl)NC(=O)CCN)CC3)CCCCC2)cc1

Result:
1. 2.8
2. 0.4
3. 0.9
4. 7.7

Batch request: Stimulation per item, same order as input.
1. NCCC(=O)N[C@H](Cc1ccc(Cl)cc1Cl)C(=O)N1CCN(C2(CNCC3CCCCC3)CCCCC2)CC1
2. CN(C)c1ccc(CNCC2(N3CCN(C(=O)[C@@H](Cc4ccc(Cl)cc4Cl)NC(=O)CCN)CC3)CCCCC2)cc1
3. NCCC(=O)N[C@H](Cc1ccc(Cl)cc1Cl)C(=O)N1CCN(C2(CNC(=O)c3ccc(C(F)(F)F)cc3)CCCCC2)CC1
4. NCCC(=O)N[C@H](Cc1ccc(Cl)cc1Cl)C(=O)N1CCN(C2(CNC(=O)Cc3ccc(F)cc3)CCCCC2)CC1
5. NCCC(=O)N[C@H](Cc1ccc(Cl)cc1Cl)C(=O)N1CCN(C2(CNC(=O)c3ccncc3)CCCCC2)CC1

Result:
5.1
4.2
8.7
2.3
4.4

Batch request: Stimulation per item, same order as input.
1. NCCC(=O)N[C@H](Cc1ccc(Cl)cc1Cl)C(=O)N1CCN(C2(CNC(=O)c3ccc(OC(F)(F)F)cc3)CCCCC2)CC1
2. CC(C)(C)c1ccc(C(=O)NCC2(N3CCN(C(=O)[C@@H](Cc4ccc(Cl)cc4Cl)NC(=O)CCN)CC3)CCCCC2)cc1

Result:
[8.9, 8.2]

###

Biological target: Melanocortin receptor 4 (Homo sapiens, UniProt P32245)
Sequence (P32245 whole entry): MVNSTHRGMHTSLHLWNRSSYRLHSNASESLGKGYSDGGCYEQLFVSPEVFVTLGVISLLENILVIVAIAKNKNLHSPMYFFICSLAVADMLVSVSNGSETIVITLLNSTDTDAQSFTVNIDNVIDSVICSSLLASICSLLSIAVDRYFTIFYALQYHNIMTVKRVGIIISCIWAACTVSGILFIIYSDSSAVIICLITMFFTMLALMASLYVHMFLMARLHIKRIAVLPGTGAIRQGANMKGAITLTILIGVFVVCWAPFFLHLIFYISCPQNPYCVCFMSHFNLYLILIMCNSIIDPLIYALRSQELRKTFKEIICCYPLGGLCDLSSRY
Test: Inhibition of [125I]NDP-MSH (radioligand) binding to the hMC4R stably expressed in HEK293 cells
Format: cell-based
So I've got a bunch of compounds here, and I need their log10 Ki values.
Scale type: logarithmic (base 10). Underlying Ki unit: nM.

Study these solved cases before continuing.
test_smiles | measured_target | log10 Ki
NCCC(=O)N[C@H](Cc1ccc(Cl)cc1Cl)C(=O)N1CCN(C2(CNCCc3ccccc3)CCCCC2)CC1 | Melanocortin receptor 4 (Homo sapiens, UniProt P32245) | 1.04
NCCC(=O)N[C@H](Cc1ccc(Cl)cc1Cl)C(=O)N1CCN(C2(CNCc3ccc(F)cc3)CCCCC2)CC1 | Melanocortin receptor 4 (Homo sapiens, UniProt P32245) | 1.79
NCCC(=O)N[C@H](Cc1ccc(Cl)cc1Cl)C(=O)N1CCN(C2(CNCc3cccs3)CCCCC2)CC1 | Melanocortin receptor 4 (Homo sapiens, UniProt P32245) | 1.08

Batch request: log10 Ki per item, same order as input.
1. NCCC(=O)N[C@H](Cc1ccc(Cl)cc1Cl)C(=O)N1CCN(C2(CNCc3nccs3)CCCCC2)CC1
2. NCCC(=O)N[C@H](Cc1ccc(Cl)cc1Cl)C(=O)N1CCN(C2(CNC(=O)c3ccccc3)CCCCC2)CC1

Result:
1: 1.69; 2: 2.34

###

Target: Melanocortin receptor 4 (Homo sapiens, UniProt P32245)
Test: Inhibition of [125I]NDP-MSH (radioligand) binding to the hMC4R stably expressed in HEK293 cells
Format: cell-based
readout_type: pKi
Give bare numbers, as −log10 of the molar value.

test_smiles | pKi
NCCC(=O)N[C@H](Cc1ccc(Cl)cc1Cl)C(=O)N1CCN(C2(CNC(=O)Cc3ccc(Cl)cc3)CCCCC2)CC1 | 7.64
COc1ccccc1C(=O)NCC1(N2CCN(C(=O)[C@@H](Cc3ccc(Cl)cc3Cl)NC(=O)CCN)CC2)CCCCC1 | 6.46
COC(=O)c1ccc(NC(=O)NCC2(N3CCN(C(=O)[C@@H](Cc4ccc(Cl)cc4Cl)NC(=O)CCN)CC3)CCCCC2)cc1 | 6.59
NCCC(=O)N[C@H](Cc1ccc(Cl)cc1Cl)C(=O)N1CCN(C2(CNC(=O)c3ccc(F)cc3)CCCCC2)CC1 | 6.72
NCCC(=O)N[C@H](Cc1ccc(Cl)cc1Cl)C(=O)N1CCN(C2(CNC(=O)c3cccnc3)CCCCC2)CC1 | 6.66
CN(C)c1ccc(NC(=O)NCC2(N3CCN(C(=O)[C@@H](Cc4ccc(Cl)cc4Cl)NC(=O)CCN)CC3)CCCCC2)cc1 | 7.21
NCCC(=O)N[C@H](Cc1ccc(Cl)cc1Cl)C(=O)N1CCN(C2(CNC(=O)Cc3cccs3)CCCCC2)CC1 | 8.08
CN(C)c1ccc(CNCC2(N3CCN(C(=O)[C@@H](Cc4ccc(Cl)cc4Cl)NC(=O)CCN)CC3)CCCCC2)cc1 | 6.96
COc1ccc(NC(=O)NCC2(N3CCN(C(=O)[C@@H](Cc4ccc(Cl)cc4Cl)NC(=O)CCN)CC3)CCCCC2)cc1 | 7.44
NCCC(=O)N[C@H](Cc1ccc(Cl)cc1Cl)C(=O)N1CCN(C2(CNCC3CCCCC3)CCCCC2)CC1 | 6.66

Batch request: pKi per item, same order as input.
1. NCCC(=O)N[C@H](Cc1ccc(Cl)cc1Cl)C(=O)N1CCN(C2(CNCc3ccccc3F)CCCCC2)CC1
2. CC(C)(C)c1ccc(C(=O)NCC2(N3CCN(C(=O)[C@@H](Cc4ccc(Cl)cc4Cl)NC(=O)CCN)CC3)CCCCC2)cc1
3. NCCC(=O)N[C@H](Cc1ccc(Cl)cc1Cl)C(=O)N1CCN(C2(CNC(=O)c3ccc(Br)cc3)CCCCC2)CC1

Result:
[7.92, 6.28, 6.62]
